- target-of-assay: Neu5Ac(a2-6)Gal(b1-4)GlcNAc(b1-2)Man(a1-6)[Man(a1-3)]Man(b1-4)GlcNAc(b1-4)GlcNAc
- experimental-protocol: glycan array binding signal (z-score within array); higher = stronger binding
- assay-conditions: glycan notation: IUPAC condensed, linker removed
This is one part of a sample in which the strongest signals are shown more often than they occur.
Listed next: entries and their corresponding glycan array binding signal (z-score).

- binder: "AAL (Agrocybe aegerita), Q6WY08 (protein) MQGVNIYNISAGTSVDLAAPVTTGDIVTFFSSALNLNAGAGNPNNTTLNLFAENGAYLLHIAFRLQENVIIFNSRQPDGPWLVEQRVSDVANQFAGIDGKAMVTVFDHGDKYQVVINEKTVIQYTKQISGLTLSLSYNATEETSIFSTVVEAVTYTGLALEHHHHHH"
  glycan array binding signal (z-score): -0.148

Turning to the following binder.
Req: Endpoint output: glycan array binding signal (z-score) of Clrb (Mus musculus) (protein) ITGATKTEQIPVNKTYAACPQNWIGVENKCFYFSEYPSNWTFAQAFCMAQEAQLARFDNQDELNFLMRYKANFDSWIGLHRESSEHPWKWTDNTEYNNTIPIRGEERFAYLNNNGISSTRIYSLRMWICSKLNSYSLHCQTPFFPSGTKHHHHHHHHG . Value?
Resp: -0.503
